Cited source for all entries: PubChem BioAssay (NCI)

System: SF-295 CNS
Assay: NCI-60 one-dose screen, 48 h
Conditions: 10 µM unless noted
This is part of a sample that, as a whole, favours compounds with a hit. Of some 83,000 tested, about 20% had one in any assay. The source made the active and inactive calls. How the source made its calls: active means growth percent below 10; inactive means the rest.
Classes used: True (active), False (inactive)

compound: COC(=O)N[C@@H](C)CNc1nccc(-c2cn(C(C)C)nc2-c2cc(Cl)cc(NS(C)(=O)=O)c2F)n1
class_label: False

compound: CCN(CC)CCNC(=O)c1c(C)[nH]c(/C=C2\C(=O)Nc3ccc(F)cc32)c1C
class_label: False

compound: COc1cccc(Nc2ncnn3ccc(CN4CC[C@@H](N)[C@H](O)C4)c23)c1
class_label: False

compound: COC(=O)[C@]12CC[C@@H](C)[C@H](C)[C@@H]1C1=CC[C@@H]3[C@@]4(C)C(c5cnco5)=C[C@@](C)(CO)C4=CC[C@@]3(C)[C@]1(C)CC2
class_label: False

compound: CCC1(/C=N/NC(N)=S)NC(=O)NC1=O (centres undefined)
class_label: False

compound: CCN1CCN(Cc2ccc(NC(=O)Nc3nc(-c4cc(OC)c(OC)c(OC)c4)cs3)cc2C(F)(F)F)CC1
class_label: True

compound: CC(C)(C)c1cnc(CSc2cnc(NC(=O)C3CCNCC3)s2)o1
class_label: False

compound: CO[C@H]1C[C@@H]2CC[C@@H](C)[C@@](O)(O2)C(=O)C(=O)N2CCCC[C@H]2C(=O)O[C@H]([C@H](C)C[C@@H]2CC[C@@H](OC(=O)C(C)(CO)CO)[C@H](OC)C2)CC(=O)[C@H](C)/C=C(\C)[C@@H](O)[C@@H](OC)C(=O)[C@H](C)C[C@H](C)\C=C/C=C/C=C/1C
class_label: False

compound: Cc1cccc(Cl)c1NC(=O)c1cnc(Nc2cc(N3CCOCC3)cc(N3CCOCC3)c2)s1
class_label: False

compound: CC[C@@H]1C(=O)N(C)c2cnc(Nc3ccc(C(=O)NC4CCN(C)CC4)cc3OC)nc2N1C1CCCC1
class_label: False

compound: CC(CCCC(=O)O)c1ccoc1 (centres undefined)
class_label: False

compound: CCOC(=O)C1=C(C)N=C2Sc3cccc(OC)c3N2[C@H]1c1ccccn1
class_label: False

compound: C[C@]12O[C@H](C[C@]1(O)CO)n1c3ccccc3c3c4c(c5c6ccccc6n2c5c31)CNC4=O
class_label: True

compound: C=C1C[C@H](O)[C@H](Br)C(C)(C)[C@@]12CCC(C)=C(Cl)C2
class_label: True

compound: CN1CCC(CNc2ccc3ncc(-c4cccc(OC(F)(F)F)c4)n3n2)CC1
class_label: True

compound: O=C(Cc1ccccc1)Nc1nnc(NC2CCN(c3nnc(NC(=O)Cc4ccccc4)s3)CC2)s1
class_label: False

compound: C[C@@H](Oc1cc(-c2cnn(C3CCNCC3)c2)cnc1N)c1c(Cl)ccc(F)c1Cl
class_label: True

compound: O=CC(OC(=O)c1ccccc1)C(OC(=O)c1ccccc1)C(COC(c1ccccc1)(c1ccccc1)c1ccccc1)OC(=O)c1ccccc1 (centres undefined)
class_label: False

compound: CCc1nc2cc(F)c(/C=C/C(=O)NO)cc2c(=O)n1CCc1ccccc1
class_label: False
